- Protocol notes: Brain PET imaging with 1TC kinetic modeling
- Run conditions: both, rhesus monkey, brain (thalamus), intravenous
Readout kind: Kp
Give the figure by itself; no unit, no explanation.

Request: Kp for Cc1nccn1CN1C[C@@H](c2cc(F)cc([18F])c2)CC1=O [[^18F]SDM-16] ?
Result: 21.6

###

- Protocol notes: Plasma free fraction (fp) by ultrafiltration
- Type: in vitro ADME, rhesus monkey
- Run conditions: monkey, plasma (separated from spiked whole blood)
Readout kind: fraction unbound at 5 min
Would you mind answering with just the numeric figure?

Use the examples below as a reference point.
[
  {
    "Molecule": "Cc1cnccc1CN1C[C@@H](c2cc(F)cc([18F])c2)CC1=O [[^18F]SynVesT-1]",
    "fraction unbound at 5 min": 0.43
  },
  {
    "Molecule": "Cc1cnccc1CN1C[C@@H](c2cccc([18F])c2)CC1=O [[^18F]SynVesT-2]",
    "fraction unbound at 5 min": 0.41
  }
]

Below: the item to evaluate.
Request: Query: fraction unbound at 5 min; subject: O=C1C[C@H](c2cc(F)c(F)c(F)c2)CN1Cc1ccncc1[18F] [[^18F]UCB-H]
Result: 0.43

###

- Protocol notes: Brain PET imaging with 1TC kinetic modeling
- Run conditions: both, rhesus monkey, brain (insular cortex), intravenous
Readout kind: half-life

Request: Which half-life value is on record for Cc1nccn1CN1C[C@@H](c2cc(F)cc([18F])c2)CC1=O [[^18F]SDM-16] ?
Result: 152 min

###

Measured K1 of individual entries
- Tested on: SV2A
- Protocol notes: Brain PET imaging with 1TC kinetic modeling
- Run conditions: Amygdala
State just the number; it will be interpreted in mL/cm^3 per min.

[
  {
    "Molecule": "[11CH3]c1cnccc1CN1C[C@@H](c2cc(F)c(F)c(F)c2)CC1=O [[^11C]UCB-J]",
    "K1, mL/cm^3 per min": 0.48
  },
  {
    "Molecule": "Cc1nccn1CN1C[C@@H](c2cc(F)cc([18F])c2)CC1=O [[^18F]SDM-16]",
    "K1, mL/cm^3 per min": 0.10
  },
  {
    "Molecule": "[11CH3]n1cncc1CN1C[C@@H](c2cc(F)cc(F)c2)CC1=O [[^11C]UCB-A]",
    "K1, mL/cm^3 per min": 0.11
  }
]

Request: Entry under review: Cc1cnccc1CN1C[C@@H](c2cc(F)cc([18F])c2)CC1=O [[^18F]SynVesT-1] . Reported K1?
Result: 0.56

###

- Protocol notes: Brain PET imaging with 1TC kinetic modeling
- Run conditions: both, rhesus monkey, brain (centrum semiovale), intravenous
Readout kind: half-life (h)
Could you give me the number in h? Just the number is fine.

Request: Given the entry Cc1nccn1CN1C[C@@H](c2cc(F)cc([18F])c2)CC1=O [[^18F]SDM-16] , report its measured half-life.
Result: 1.38

###

The following compounds are listed with their measured K1 values.
- System: SV2A
- Protocol notes: Brain PET imaging with 1TC kinetic modeling
- Run conditions: Nucleus accumbens
Express your answer in mL/cm^3 per min, writing the number without its unit.

Study these solved cases before continuing.
[
  {
    "Compound": "Cc1nccn1CN1C[C@@H](c2cc(F)cc([18F])c2)CC1=O [[^18F]SDM-16]",
    "K1, mL/cm^3 per min": 0.13
  },
  {
    "Compound": "[11CH3]n1cncc1CN1C[C@@H](c2cc(F)cc(F)c2)CC1=O [[^11C]UCB-A]",
    "K1, mL/cm^3 per min": 0.13
  },
  {
    "Compound": "[11CH3]c1cnccc1CN1C[C@@H](c2cc(F)c(F)c(F)c2)CC1=O [[^11C]UCB-J]",
    "K1, mL/cm^3 per min": 0.77
  }
]

Shift focus to the following entry.
Request: Find the recorded K1 belonging to Cc1cnccc1CN1C[C@@H](c2cc(F)cc([18F])c2)CC1=O [[^18F]SynVesT-1] and report it.
Result: 0.99
